Target: T1, Reg1_301-599 (human Regnase-1 amino acids 301 to 599, FLAG tag on the N-terminal side, BirA recognition … (human))
T1 sequence (Q5D1E8 301-599, looked up): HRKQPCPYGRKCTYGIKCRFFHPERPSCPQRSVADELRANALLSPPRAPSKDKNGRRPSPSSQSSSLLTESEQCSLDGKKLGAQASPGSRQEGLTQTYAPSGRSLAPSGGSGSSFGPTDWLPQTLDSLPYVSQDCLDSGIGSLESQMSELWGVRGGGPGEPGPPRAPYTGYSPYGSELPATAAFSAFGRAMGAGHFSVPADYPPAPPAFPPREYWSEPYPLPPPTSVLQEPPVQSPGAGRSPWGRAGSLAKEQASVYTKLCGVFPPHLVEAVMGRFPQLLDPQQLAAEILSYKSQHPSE
Test: cell-based or functional assay
Positions of bridges follow the written chain, without caps; N, C: chain ends. Non-standard residues stand in square brackets, D forms with d. No end group written: not given here. NMeA = CN[C@@H](C)C(=O)O; dNMeA = CN[C@H](C)C(=O)O
Ranges used to classify IC50, phosphorylation by IKKβ: low range (below 6 µM), mid range (6 µM to below 20 µM), high range (20 µM or more)

Take a look at these entries with their results.
BINDER	CLASSIFICATION
[NMeA]TSWYKVNWGQD (lactam N-12) [PP1]	high range
[NMeA]RFGVWSWIYPD (lactam N-12) [PP14]	mid range
[NMeA]VFYKIWYNWD (lactam N-11) [PP19]	mid range
[dNMeA]EDTPEDDHD (lactam N-10) [PP25]	high range
[dNMeA]SKYWNSWYNIWD (lactam N-13) [PP8]	low range
[NMeA]DIWFDYWDYD (lactam N-11) [PP18]	low range

# input Classify this binder: [NMeA]NYQSWYYRSIWD (lactam N-13) [PP10]
# output low range
